Recorded values, source patent US20260125454A1.

Target: T1, Biotin-huCGRPaSA (human, not fully specified; biotin (position not given))
T1 construct: exact construct ('aSA') not explained; also called Biotin CGRPaSA; full-length (1-37) CGRP
T1 peptide: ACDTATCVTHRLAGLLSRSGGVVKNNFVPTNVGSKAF
Assay: ELISA, supernatant; relative to chimeric C245

[
  {
    "binder": "hu153 (antibody, V domains shown, 3E5 HC-1/2B8 LC2-2) VH: QVQLVQSGAEVKKPGASVKVSCKTSGYTFTDYNMHWVRQAPGQRLEWMGYISPYNGGTAYNQKFKFRVTLTVDTSSSTAYMELSSLRSEDTAVYYCAREGLGGYWGQGTLVTVSS VL: DVQLTQSPSFLSASVGDRVTITCQASQNIDGNTYMNWYQQKPGKAPKVLIYSIFNLESGVPSRFSGSGSGTEFTLTISSLQPEDFATYYCQQSNDYPYTFGQGTKLEIK",
    "measure unit": "%",
    "Relative binding activity, %": 56
  },
  {
    "binder": "hu156 (antibody, V domains shown, 3E5 HC-1/3H10 LC2-2) VH: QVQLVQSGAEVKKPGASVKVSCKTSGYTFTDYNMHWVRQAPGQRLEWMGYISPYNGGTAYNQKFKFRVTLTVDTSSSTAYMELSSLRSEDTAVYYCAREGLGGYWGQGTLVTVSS VL: DIQLTQSPSSLSASVGDRVTITCKASQNIDYGGYSYMNWYQQKPGKAPKVLIYSVFNLESGVPSRFSGSGSGTDFTLTISSLQPEDFATYYCQQSNEAPYTFGQGTKLEIK",
    "measure unit": "%",
    "Relative binding activity, %": 32
  }
]
